# Tested on: woolly cupgrass (Eriochloa villosa)
# PROTOCOL_TEXT: Test C preemergence
# Assay type: in vivo
# PROTOCOL_CONDITIONS: Rate 125 g/ha; scale 0 to 100, 0 no effect, 100 complete control
RESULT_TYPE: Plant response rating, Cupgrass, Woolly
One number for each entry.

# annotated cases, reported Plant response rating, Cupgrass, Woolly shown
> print(dat)
                                   molecule                              result.type  value.observed
1  CC(C)OC(=O)c1cccc(N2CCC(n3ccc(C(C)(C)C)n3)C2=O)c1 (stereo not shown)  Plant response rating, Cupgrass, Woolly              50
2  COc1cc(N2CCC(n3ccc(C(C)C)n3)C2=O)ccc1Br (stereo not shown)  Plant response rating, Cupgrass, Woolly             100
3  COC(=O)c1cccc(N2CCC(n3ccc(C(C)(C)C)n3)C2=O)c1 (stereo not shown)  Plant response rating, Cupgrass, Woolly              80
4  CCC(C)c1ccn(C2CCN(c3ccc(Cl)c(OC)c3)C2=O)n1 (stereo not shown)  Plant response rating, Cupgrass, Woolly             100
5  CCCC(C)c1ccn(C2CCN(c3cccc(OCC)c3)C2=O)n1 (stereo not shown)  Plant response rating, Cupgrass, Woolly             100

I would be grateful if you could provide Plant response rating, Cupgrass, Woolly for each of the following entries.
1. CCC(C)Oc1cccc(N2CCC(n3ccc(C(C)(C)C)n3)C2=O)c1 (stereo not shown)
2. CCOc1cccc(N2CCC(n3ccc(C(C)C)n3)C2=O)c1 (stereo not shown)
3. COc1cc(N2CCC(n3ccc(C(C)C)n3)C2=O)ccc1C (stereo not shown)
4. CCCC(C)c1ccn(C2CCN(c3ccc(Cl)c(OC)c3)C2=O)n1 (stereo not shown)
5. COc1cccc(N2CCC(n3ccc(C(C)(C)C)n3)C2=O)c1 (stereo not shown)
6. CCC(CC)c1ccn(C2CCN(c3ccc(Br)c(OC)c3)C2=O)n1 (stereo not shown)

1. 50
2. 100
3. 100
4. 100
5. 100
6. 100

Give Plant response rating, Cupgrass, Woolly for each listed item.
1. COc1cc(N2CCC(n3ccc(C(C)(C)C)n3)C2=O)ccc1Br (stereo not shown)
2. COc1cc(N2CCC(n3ccc(C(C)C)n3)C2=O)ccc1Cl (stereo not shown)

1. 100
2. 100

---

Please respond with reported Plant response rating, Surinam grass for every item in the list.
# System: Surinam grass (Brachiaria decumbens)
# PROTOCOL_TEXT: Test C postemergence
# Assay type: in vivo
# PROTOCOL_CONDITIONS: Rate 125 g/ha, scale 0 to 100, 0 no effect, 100 complete control
Numbers only.

Kindly give each listed record's Plant response rating, Surinam grass.
1. CCCC(C)c1ccn(C2OCN(c3cccc(OC(F)(F)F)c3)C2=O)n1 (stereo not drawn)
2. CCOc1cc(N2CCC(n3ccc(C(C)(C)C)n3)C2=O)ccc1C (stereo not drawn)
3. Cc1ccc(N2CCC(n3ccc(C(C)(C)C)n3)C2=O)cc1OCCCl (stereo not drawn)
4. COc1cc(N2CCC(n3ccc(C(C)C)n3)C2=O)ccc1Br (stereo not drawn)

[20, 0, 0, 30]

Record Plant response rating, Surinam grass for all entries; do not skip any.
1. COc1cc(N2CCC(n3ccc(C(C)(C)C)n3)C2=O)ccc1Br (stereo not drawn)
2. CCC(C)c1ccn(C2SCN(c3cccc(C(F)(F)F)c3)C2=O)n1 (stereo not drawn)
3. CCC(CC)c1ccn(C2SCN(c3cccc(C(F)(F)F)c3)C2=O)n1 (stereo not drawn)
4. CCC(CC)c1ccn(C2CCN(c3ccc(C)c(OC)c3)C2=O)n1 (stereo not drawn)
5. O=C1C(n2ccc(C3CCC3)n2)SCN1c1cccc(OC(F)(F)F)c1 (stereo not drawn)

40
0
0
0
0

Source listed as patent US7138361B2.
